# tested target: cynomolgus complement C3b protein (cynomolgus monkey (Macaca fascicularis))
# assay procedure: cell-based or functional assay
property measured: HA (nM), 10% cyno serum, IC50
Output spec: scalar in nM, unitless text.

What value of HA (nM), 10% cyno serum, IC50 has been recorded for this entry: MOR09136 Fab (Fab, V domains shown, also called Fab 9136) VH: QVQLVQSGAEVKKPGSSVKVSCKASGGTFSSYTFSWVRQAPGQGLEWMGNILPIFGDANYAQKFQGRVTITADESTSTAYMELSSLRSEDTAVYYCARNKGAFYYMSTYPSLDVWGQGTLVTVSS VL: DIQMTQSPSSLSASVGDRVTITCRASQNINYYLNWYQQKPGKAPKLLIYDAFSLQSGVPSRFSGSGSGTDFTLTISSLQPEDFATYYCQQSWSVPPFTFGQGTKVEIKR
52

What value of HA (nM), 10% cyno serum, IC50 has been recorded for this entry: MOR09141 Fab (Fab, V domains shown, also called Fab 9141) VH: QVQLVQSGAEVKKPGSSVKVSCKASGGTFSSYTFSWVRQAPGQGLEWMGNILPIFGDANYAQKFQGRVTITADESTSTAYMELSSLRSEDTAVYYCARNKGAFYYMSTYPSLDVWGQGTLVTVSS VL: DIQMTQSPSSLSASVGDRVTITCRASQNINYYLNWYQQKPGKAPKLLIYDAFSLQSGVPSRFSGSGSGTDFTLTISSLQPEDFATYYCQQSIAVPPFTFGQGTKVEIKR
43

What value of HA (nM), 10% cyno serum, IC50 has been recorded for this entry: MOR09423 Fab (Fab, V domains shown, also called Fab 9423) VH: QVQLVQSGAEVKKPGASVKVSCKASGYTFTGYYINWVRQAPGQGLEWMGIISPNQGTTGYAQKFQGRVTMTRDTSISTAYMELSSLRSEDTAVYYCARGNYDHLDYWGQGTLVTVSS VL: DIQMTQSPSSLSASVGDRVTITCRASQGISNYLNWYQQKPGKAPKLLIYDASTLQSGVPSRFSGSGSGTDFTLTISSLQPEDFATYYCQQDWHTLPVTFGQGTKVEIKR
83
